For each of the molecules below, state its pIC50.
Study System: human sAC (Homo sapiens, UniProt Q96PN6)
Construct: made in house
Sequence (Q96PN6 1-469 limits assumed): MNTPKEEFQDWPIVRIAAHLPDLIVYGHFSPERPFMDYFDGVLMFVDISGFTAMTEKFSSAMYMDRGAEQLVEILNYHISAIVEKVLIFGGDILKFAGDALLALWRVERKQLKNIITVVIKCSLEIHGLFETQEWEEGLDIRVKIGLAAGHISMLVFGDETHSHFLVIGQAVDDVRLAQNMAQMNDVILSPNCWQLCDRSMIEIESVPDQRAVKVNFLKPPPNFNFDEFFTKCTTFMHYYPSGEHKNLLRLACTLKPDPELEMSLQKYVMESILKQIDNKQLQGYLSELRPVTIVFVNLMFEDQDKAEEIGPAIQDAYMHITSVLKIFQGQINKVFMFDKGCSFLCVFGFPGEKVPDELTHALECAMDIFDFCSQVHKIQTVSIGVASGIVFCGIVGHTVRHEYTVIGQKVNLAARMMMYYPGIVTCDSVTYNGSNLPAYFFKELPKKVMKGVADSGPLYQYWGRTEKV
Procedure Details: in vitro adenylyl cyclase assay with purified human sAC protein (cAMP by Correlate-EIA)
Format: biochemical
Reported Conditions: BASAL activity of human sAC in vitro (just Mg-ATP, no calcium or bicarbonate); read-out: hsACt-Basal approximate IC50 (or the dose range where the IC50 should lie)
pIC50: −log10 of the molar value.

Q: Look up and state reported pIC50 for O=C(CSc1nc2ccccc2[nH]1)NCCc1ccccc1
Ans: < 4.00

Q: Look up and state reported pIC50 for O=C(CSc1nc2ccccc2[nH]1)N/N=C/c1ccccc1Cl
Ans: 4.00 to 5.00

Q: Look up and state reported pIC50 for Cc1ccc(/C=N/NC(=O)CSc2nc3ccccc3[nH]2)cc1
Ans: < 4.00

Q: Look up and state reported pIC50 for O=C(CSc1nc2ccccc2[nH]1)N/N=C/c1ccc(C(F)(F)F)cc1
Ans: < 4.00

Q: Look up and state reported pIC50 for O=C(CSc1nc2ccccc2[nH]1)N/N=C/c1cc([N+](=O)[O-])ccc1Cl
Ans: < 4.00

Q: Look up and state reported pIC50 for O=C(CSc1nc2ccccc2[nH]1)N/N=C/c1ccc(Cl)cc1Cl
Ans: 4.00 to 5.00

Q: Look up and state reported pIC50 for Cn1c(SCC(=O)N/N=C/c2cc(Br)ccc2O)nc2ccccc21
Ans: 5.00 to 6.00

Q: Look up and state reported pIC50 for COc1cc(/C(C)=N\NC(=O)CSc2nc3ccccc3[nH]2)ccc1O
Ans: < 4.00

Q: Look up and state reported pIC50 for O=C(CSc1nc2ccccc2[nH]1)N/N=C/c1cc(I)cc(I)c1O
Ans: 6.00 to 7.00

====

Study System: human sAC (Homo sapiens)
Construct: made in house
Procedure Details: in vitro adenylyl cyclase assay with purified human sAC protein (cAMP by Correlate-EIA)
Format: biochemical
Reported Conditions: BASAL activity of human sAC in vitro (just Mg-ATP, no calcium or bicarbonate); read-out: hsACt-Basal approximate IC50 (or the dose range where the IC50 should lie)
For each of the molecules below, state its IC50.

Q: With human sAC (Homo sapiens) as the test system, provide measured IC50 for this molecule: C/C(=N\NC(=O)CSc1nc2ccccc2[nH]1)c1ccc(Cl)cc1 [KH7.110]
Ans: 10 to 100 µM

Q: With human sAC (Homo sapiens) as the test system, provide measured IC50 for this molecule: CCN(CC)c1ccc(/C=N/NC(=O)CSc2nc3ccccc3[nH]2)cc1 [KH7.136]
Ans: 10 to 100 µM

Q: With human sAC (Homo sapiens) as the test system, provide measured IC50 for this molecule: COc1ccc(C2=NN(C(=O)CSc3nc4ccccc4[nH]3)C(c3ccc(F)cc3)C2)cc1 (stereo not shown) [KH7.120]
Ans: 10 to 100 µM

Q: With human sAC (Homo sapiens) as the test system, provide measured IC50 for this molecule: C/C(=N\NC(=O)CSc1nc2ccccc2[nH]1)c1ccc(Br)cc1 [KH7.107]
Ans: 10 to 100 µM

Q: With human sAC (Homo sapiens) as the test system, provide measured IC50 for this molecule: C/C(=N\NC(=O)CSc1nc2ccccc2[nH]1)c1ccccc1 [KH7.108]
Ans: > 100 µM

Q: With human sAC (Homo sapiens) as the test system, provide measured IC50 for this molecule: CCOc1ccc(/C=N/NC(=O)CSc2nc3ccccc3[nH]2)cc1OC [KH7.145]
Ans: > 100 µM

Q: With human sAC (Homo sapiens) as the test system, provide measured IC50 for this molecule: C/C(=N/NC(=O)CSc1nc2ccccc2[nH]1)c1ccc(F)cc1 [KH7.118]
Ans: > 100 µM
